# SYSTEM_TESTED: HLA-A*02:01 tetramer (human)
# ASSAY_METHOD_TEXT: peptide exchange on HLA-A*02:01 tetramer, entering peptide 20 µM, 4 h; competitor: exiting peptide ILKEKK(DNP)VHGV; capture on anti HLA-ABC beads, anti-DNP FITC, flow cytometry
Threshold rule: % peptide exchange greater than or equal to 60% is T; below that, F.

Reported % peptide exchange at or above 60%? GLAVVTHGL (modifications not checked) [… (SEQ ID NO: 24)] T

Can you handle EYILSLEEL (modifications not checked) [… (SEQ ID NO: 45)] next? F

Can you handle CSLWNGPHL (modifications not checked) [… (SEQ ID NO: 44)] next? F

Can you handle ATVQGQNLK (modifications not checked) [… (SEQ ID NO: 48)] next? F

Can you handle FLYDDNQRV (modifications not checked) [… (SEQ ID NO: 33)] next? T

Can you handle RIKDFLRNL (modifications not checked) [… (SEQ ID NO: 42)] next? F

Can you handle ALLAVGATK (modifications not checked) [… (SEQ ID NO: 43)] next? F
